Task for the reader: assign each of the following compounds its reported log10 EC50.
biological target: UniProtKB Q13627; experiment: DYRK1A kinase activity (Ser/Thr 18 peptide Z-lyte FRET assay); settings: recombinant DYRK1A, 30 μM ATP, one hour at room temperature
In our notation, the value equals log10 of EC50 in nM.

Request: Give the measured log10 EC50 of `Cn1cc(-c2ccc3cnc(NC(=O)CCc4ccccc4)cc3n2)cn1` .
Response: 1.36

Request: Now the compound Cn1cc(-c2cnc3cnc(NC(=O)CC4CNCCO4)cc3c2)cn1 (centres unmarked)
Response: 1.87

Request: Quick one: `CNC(=O)c1ccc(C(=O)Nc2cc3cc(-c4cn(C)nn4)cnc3cn2)cn1`
Response: 2.43

Request: Now the compound `CN1CCC(C(=O)Nc2cc3cc(-c4cnsc4)cnc3cn2)CC1`
Response: 1.60

Request: What about this compound? `Cn1cc(-c2cnc3cnc(NC(=O)c4ccnc(N5CCNCC5)c4)cc3c2)nn1`
Response: 2.17

Request: Also need `CO[C@H]1CC[C@@H](C(=O)Nc2ncc3ccc(-c4nnc(C)s4)cc3n2)CC1` , thanks.
Response: 1.32

Request: Try this compound too: `CN(C)CCNc1cc(C(=O)Nc2cc3nc(-c4cnn(C)c4)ccc3cn2)ccn1`
Response: 0.78

Request: Entry `Cn1cc(-c2ccc3cnc(NC(=O)C4CCN(S(C)(=O)=O)CC4)cc3n2)cn1` please
Response: 0.48

====

target: DYRK1A kinase (Homo sapiens, UniProt Q13627); test: DYRK1A kinase activity (Ser/Thr 18 peptide Z-lyte FRET assay); assay type: biochemical; conditions: recombinant DYRK1A, 30 μM ATP, one hour at room temperature;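 further: kinase activity read as coumarin/fluorescein emission ratio after development step, with unphosphorylated and phosphorylated peptide forms setting 0% and 100% controls, values from dose-response curves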
result_type: pEC50
# reply with the number alone; pEC50 is -log10 of concentration in mol/L

Request: For the compound shown here, `CN1CCC(Oc2cccc(C(=O)Nc3cc4cc(-c5cnco5)cnc4cn3)c2)CC1` , give the reported pEC50.
Response: 8.15

Request: # iterate: `CN1CCc2ccc(C(=O)Nc3cc4cc(-c5cnn(C)c5)cnc4cn3)cc2C1`
Response: 7.44

Request: `Cc1cn2c(n1)CN(C(=O)Nc1ncc3ccc(-c4cnc(C)o4)cc3n1)CC2`
Response: 7.41

Request: Next: `CN1CCN(c2cc(C(=O)Nc3cc4cc(-c5cnn(C)c5)ncc4cn3)ccn2)CC1`
Response: 8.00

Request: Now the compound `CN(C)Cc1ccc(C(=O)Nc2ncc3ccc(-c4cnn(C)c4)cc3n2)cc1`
Response: 7.80

Request: // query: `Cn1cc(-c2cnc3cnc(NC(=O)c4ccnc(N5CCNCC5)c4)cc3c2)cn1`
Response: 7.39

Request: `CN1CC(COc2cncc(-c3ccc4cnc(NC(=O)c5ccc(F)cc5)nc4c3)n2)C1` , same question.
Response: 7.42

Request: // repeat for `CC(F)(F)CN1CCC(C(=O)Nc2cc3nc(-c4cnco4)ccc3cn2)CC1` and report
Response: 7.66

Request: Moving on to `CN1CCCN(CC(=O)Nc2cc3cc(-c4cnn(C)c4)ncc3cn2)CC1`
Response: 7.80

Request: Another compound: `Cc1nnc(-c2ccc3cnc(NC(=O)C4CCN(C(=O)c5ccccc5)CC4)nc3c2)s1`
Response: 7.60

Request: Also need `O=C(Nc1cc2cc(-c3cnco3)cnc2cn1)C1CCN(C(=O)CN2CCCC2)CC1` , thanks.
Response: 7.59

Request: Same read-out for `Cc1nnc(-c2cc3cc(NC(=O)C4CCN(C(=O)c5ccccc5)CC4)ncc3cn2)s1` ?
Response: 7.43

Request: One more compound: `Cn1cncc1-c1ccc2cnc(NC(=O)c3cccc(CN4CCCC4)c3)cc2n1`
Response: 9.00

Request: Next compound: `CN1CCC(N(C)c2cc(C(=O)Nc3ncc4ccc(-c5cn(C)nn5)cc4n3)ccn2)CC1`
Response: 8.22

Request: What do we get for `COC1CCN(CC(=O)Nc2cc3nc(-c4cn(C)nn4)ccc3cn2)CC1` ?
Response: 6.44

Request: Repeat for the following compound: `CN1CCC(C(=O)Nc2cc3cc(-c4cnsc4)ncc3cn2)CC1`
Response: 7.41

====

system: α-smooth muscle actin (aSMA) positive LL29 cells; assay: Inhibition of the fibrotic process: αSMA staining in TGF-β1 treated LL29 fibroblasts from IPF patients; details: Homo sapiens, Fibroblast, 96 h
result_type: pEC50
Quick note: pEC50 means taking -log10 of the concentration in moles per liter.

Request: Which pEC50 value belongs to `CN1CCN(c2cc(C(=O)Nc3ncc4ccc(-c5cnn(C)c5N)cc4n3)ccn2)CC1` ?
Response: 5.85

Request: Thanks! And `CN1CCC2(CC1)CN(c1cc(C(=O)Nc3cc4cc(-c5cnn(C)c5CN5CCCCC5)cnc4cn3)ccn1)C2` ?
Response: 5.80

Request: How about `CC(C)n1cc(C(=O)Nc2ncc3ccc(-c4cncc(NC5CCN(C)CC5)n4)cc3n2)cn1` ?
Response: 5.23

Request: And the next one, `COC1CCN(CC(=O)Nc2cc3cc(-c4cn(C)nn4)ncc3cn2)CC1` ?
Response: 5.08

Request: `Cc1ncc(-c2ccc3cnc(NC(=O)N4CCOCC4)cc3n2)s1`
Response: 5.67

Request: Now consider `CN1CCCN(c2cc(C(=O)Nc3cc4nc(-c5cn(C)nn5)ccc4cn3)ccn2)CC1` and answer again.
Response: 5.67

Request: And then `Cn1cc(-c2cnc3cnc(NC(=O)C4CCN(Cc5ncccn5)CC4)cc3c2)cn1` , what is it?
Response: 5.05

Request: Check `Cn1cc(-c2ccc3cnc(NC(=O)c4ccc5ccoc5c4)nc3c2)cn1` too.
Response: 5.57

Request: Continue with `CN(CC(=O)Nc1ncc2ccc(-c3cnn(C)c3)cc2n1)C1CCC1`
Response: 5.80

Request: Next: `CN1CCC(n2cc(C(=O)Nc3cc4cc(-c5cncc6[nH]ccc56)ncc4cn3)cn2)CC1`
Response: 5.62

====

molecular target: UniProt Q13627; experiment: DYRK1A kinase activity (Ser/Thr 18 peptide Z-lyte FRET assay); conditions: recombinant DYRK1A, 30 μM ATP, one hour at room temperature
Can you tell me pEC50 for the items I'm about to list?
Lab note: report pEC50 as minus log10 of the concentration in molar units, number only.

Request: Record lookup: for UniProt Q13627, what pEC50 belongs to COCCN[C@H]1CC[C@H](C(=O)Nc2cc3nc(-c4cnn(C)c4)ccc3cn2)CC1 [Compound 4536] ?
Response: 7.85

Request: Proceed to CN1CCN(c2cc(C(=O)Nc3cc4cc(-c5cncc(N)c5)ncc4cn3)ccn2)CC1 [Compound 4432]
Response: 8.70

Request: Further, for N#CC(c1cncc(-c2ccc3cnc(NC(=O)C4CC4)nc3c2)c1)N1CCC(O)CC1 (stereo not shown) [Compound 4594] ?
Response: 7.46

Request: What about this compound? Cc1ncc(C(=O)Nc2cc3cc(-c4cnc(C)n4C)cnc3cn2)s1 [Compound 3167]
Response: 7.43

Request: Next: CN1CCC2(CC1)CN(c1cc(C(=O)Nc3cc4cc(-c5cnn(C)c5CN5CCCCC5)cnc4cn3)ccn1)C2 [Compound 3032]
Response: 8.10

Request: Entry Cc1nnc(-c2ccc3cnc(NC(=O)CN4C5CCC4COC5)nc3c2)s1 [Compound 1634] please
Response: 6.47

Request: What do you have for CN1CCN(c2cc(C(=O)Nc3ncc4ccc(-c5cnn(C)c5N)cc4n3)ccn2)CC1 [Compound 1210] ?
Response: 8.40

Request: Consider next the compound CN1CCCN(c2cc(C(=O)Nc3cc4nc(-c5cn(C)nn5)ccc4cn3)ccn2)CC1 [Compound 379] in the same way.
Response: 7.96

Request: // same read-out, input: Cn1cc(-c2cc3cc(NC(=O)c4ccnc(N5CCNCC5)c4)ncc3cn2)cn1 [Compound 3773]
Response: 7.80

Request: Item: Cn1cc(-c2ccc3cnc(NC(=O)CCc4ccccc4)nc3c2)cn1 [Compound 1101]
Response: 7.70

Request: And CN(C)[C@H]1CC[C@H](C(=O)Nc2cc3cc(-c4cncs4)ncc3cn2)CC1 [Compound 4239] ?
Response: 8.30

Request: Please do the same for CC(C)OC(=O)N1CCC(n2cc(C(=O)Nc3cc4nc(-c5cnn(C)c5)ccc4cn3)cn2)CC1 [Compound 234] as well.
Response: 8.40

Request: // next record Cn1cc(-c2cnc3cnc(NC(=O)C4CCN(Cc5ncccn5)CC4)cc3c2)cn1 [Compound 2820]
Response: 7.43

Request: CN1CCC(n2cc(C(=O)Nc3ncc4ccc(-c5cnn(C)c5)cc4n3)cn2)CC1 [Compound 1136] ?
Response: 7.89

Request: Continue with CN(C)C1CCN(c2cc(C(=O)Nc3cc4nc(-c5cn(C)nn5)ccc4cn3)ccn2)CC1 [Compound 376]
Response: 7.72

Request: Another: CN1CCN(c2ncc(C(=O)Nc3cc4nc(-c5cnn(C)c5)ccc4cn3)s2)CC1 [Compound 4539]
Response: 8.70
